- System: U-937
- Test Description: Antiproliferative activity against human U937 cells by MTT assay
- Type: functional, cell-based
Quantity: IC50 (µM)
Give bare numbers, in µM.

Some compounds with known IC50 results, for comparison:
C=C(Br)C(=O)Nc1ccc2oc(C(=O)NCCCCCCNc3nsc4nc5ccccc5n34)cc2c1: 0.74
C=C(Br)C(=O)Nc1ccc2c(c1)cc(C(=O)NCCCCCCNc1nsc3nc4ccccc4n13)n2C: 0.89

Value sought for every listed compound: IC50.
1. C=C(Br)C(=O)Nc1ccc2sc(C(=O)NCCCCCCNc3nsc4nc5ccccc5n34)cc2c1
2. C=C(Br)C(=O)Nc1ccc2[nH]c(C(=O)NCCCCCCNc3nsc4nc5ccccc5n34)cc2c1
3. C=C(Br)C(=O)Nc1ccc2[nH]c(C(=O)NCCCNc3nsc4nc5ccccc5n34)cc2c1

0.91
0.4
0.24

Origin of the recorded values: ChEMBL document CHEMBL1139187
